The origin of these recorded values is PubChem BioAssay (NCI).

Tested on: CCRF-CEM leukemia
Assay: NCI-60 one-dose screen, 48 h (100 = growth as untreated, 0 = no growth, -100 = all killed)
Settings: 10 µM
This is part of a sample that, as a whole, favours compounds with a hit. Of some 83,000 tested, about 20% had one in any assay.
We'd kindly ask you to apply these growth classes: c1 = under 20%, c2 = from 20% up to 90%, c3 = 90% and over

Example results:
compound | classification
CCOC(=O)c1c(C)oc2ncnc(Nc3ccc(NC(=O)Nc4ccc(CC)cc4)cc3)c12 | c3
O=C1C(=O)c2ccccc2C(O)=C1CCCc1ccc(C2CCCC2)cc1 | c2
CC1=C[C@@H]2c3c(c(O)c(O)c4oc5cc(O)cc(O)c5c(=O)c34)[C@@H](c3cc(O)c(O)c4oc5cc(O)cc(O)c5c(=O)c34)[C@@H]2C(C)(C)C1 | c1
COc1ccc(/C=C/C(=O)/C=C/c2cc3ccccc3[nH]c2=O)cc1 | c1
CC(C)(C)c1ccc(OCCOC(=O)CBr)cc1 | c2
COc1cc2ncnc(Nc3ccc4c(cnn4C(=O)Nc4ccccc4)c3)c2cc1OC | c2
CC(C)CSc1nc(-c2ccc(F)cc2)c(C#N)c(N2CCCCC2)n1 | c3
COC(=O)Nc1nc2ccc(C(=O)c3ccccc3N(C)C3COC3)cc2[nH]1 | c1

Query: Bin this entry: CC[n+]1c(C)ccc2cc(C)ccc21
Reply: c3

Query: Bin this entry: CC(C)OC(=O)[C@H](C)N[P@@](=O)(OC[C@@]1(C)O[C@@H](n2cc(F)c(N)nc2=O)C[C@@H]1O[P@](=O)(N[C@@H](C)C(=O)OC(C)C)Oc1ccccc1)Oc1ccccc1
Reply: c2

Query: Bin this entry: O=C1C(Cl)=C(SC2=NCCN2)C(=O)c2ccccc21
Reply: c2

Query: Bin this entry: COc1cccc2c1nc1cccc(OC)c1[n+]2[O-]
Reply: c1

Query: Bin this entry: CC1(C)CC(=O)C2=C(C1)Oc1nc(N)c(C#N)c(N)c1C2c1ccc(F)cc1 (stereo not drawn)
Reply: c3

* * *

Recorded growth values for a group of molecules are listed next.
System: LOX IMVI melanoma
Assay: NCI-60 one-dose screen, 48 h (100 = growth as untreated, 0 = no growth, -100 = all killed)
Conditions: 10 µM unless noted
Compounds without any hit were thinned out: in the full panel of roughly 83,000, 20% have a hit.
Please reply with the bare figure in % and do not write the unit itself.

Sample answers from the record:
smilesRepresentation | valueUnit | endpointResult
CC[C@H](Nc1ncnc2nc[nH]c12)c1nc2cccc(NCc3ccc(C(=O)NO)nc3)c2c(=O)n1-c1ccccc1 | % | 23.1
Nc1ncn([C@@H]2O[C@H](CO)[C@@H](O)C2(F)F)c(=O)n1 | % | 34.5

Please examine the following record next.
Query: Specify reported growth for the molecule shown: CCC(C)(C)c1ccc(OCCCCCCN2CCN(c3ccc(C)c(Cl)c3)CC2)cc1
Reply: 81.8

* * *

Recorded growth values for a group of compounds are listed next.
Test system: SK-OV-3 ovarian
Assay: NCI-60 one-dose screen, 48 h (100 = growth as untreated, 0 = no growth, -100 = all killed)
Details: 10 µM unless noted
This is part of a sample that, as a whole, favours compounds with a hit. Of some 83,000 tested, about 20% had one in any assay.
Please reply with the bare figure in % and do not write the unit itself.

Sample answers from the record:
smilesRepresentation | valueUnit | growth
C#CCCCCCCC[C@@H]1OC(=O)[C@H]([C@@H](C)CC)NC(=O)[C@H]([C@@H](C)CC)NC(=O)CC(=O)[C@@H]1C | % | 103
Cc1cc(CSc2ccc(Cl)cc2)ccc1N | % | 106
CCCNC(=O)Oc1ccc(/C(=C(/CC)Cc2ccccc2)c2ccc(OCCN(CC)CC)cc2)cc1 | % | 88.4
CCC(C)(CC)c1ccc(O)c(C)c1 | % | 93.4
COc1cc2oc(-c3ccc(NC(=O)c4ccccc4)cc3)cc(=O)c2c(OC)c1OC | % | 101

Query: Specify reported growth for the compound shown: O=C(Oc1ccccc1)c1ccccc1Cl
Reply: 101

Query: Specify reported growth for the compound shown: CC(=O)CC(=O)OC/C=C(/C)CCC=C(C)C
Reply: 111

Query: Specify reported growth for the compound shown: CC(=O)Nc1nc(C)c(C(=O)NNC(=O)Nc2ccccc2)s1
Reply: 105

Query: Specify reported growth for the compound shown: Cc1nc2c(nnn2-c2ccccc2)c2nc(-c3ccc(Cl)cc3)oc(=O)c12
Reply: 119

Query: Specify reported growth for the compound shown: COc1cc(-c2nn(-c3ccc(NC(=O)Nc4ccc(Cl)c(Cl)c4)cc3)cc2-c2ccncc2)ccc1Cl
Reply: 62.8

Query: Specify reported growth for the compound shown: FC(F)(F)c1cccc(-c2[nH]ncc2-c2nnnn2-c2ccccc2)c1
Reply: 55.4

* * *

System: NCI-H226 lung
Assay: NCI-60 one-dose screen, 48 h (100 = growth as untreated, 0 = no growth, -100 = all killed)
Details: 10 µM unless noted
About 83,000 compounds went through this panel and 20% of them were active in at least one assay; those are over-represented in the sample as a whole. The source made the active and inactive calls. Rule for the calls: active = growth percent below 10; inactive = the rest.
propertyName: growth

Sample answers from the record:
compound | growth
CCCCCCCCCCC(C[N+](C)(C)C/C=C/c1ccccc1)C(O)c1ccccc1 (stereo not drawn) | 29% (inactive)
C[C@]12C=CC(=O)C=C1[C@@H](F)C[C@@H]1[C@@H]2[C@@H](O)C[C@@]2(C)[C@H]1CC[C@]2(O)C(=O)CO | 90.6% (inactive)

Query: Please indicate recorded growth of COc1ccc(Cn2cc3c(c2-c2ccccc2)CCc2cnoc2-3)cc1OC measured with NCI-H226 lung.
Reply: 57.3% (inactive)

* * *

System: MOLT-4 leukemia
Assay: NCI-60 one-dose screen, 48 h (100 = growth as untreated, 0 = no growth, -100 = all killed)
Details: 10 µM unless noted
About 83,000 compounds went through this panel and 20% of them were active in at least one assay; those are over-represented in the sample as a whole.
Give TRUE when the value for growth is at least 10%. Give FALSE when it is less.

compound | classification
COc1ccc(C(=O)c2no[n+]([O-])c2C(=O)c2ccc(OC)cc2)cc1 | FALSE

Query: # check: growth of c1cc[c]([Bi]([c]2ccccc2)[c]2ccccc2)cc1 is greater than or equal to 10%
Reply: TRUE

Query: # check: growth of CCCCCCNC(=O)Oc1ccc(/C(=C(/C)Cc2ccc(OC)cc2)c2ccc(OCCN3CCCCC3)cc2)cc1 is greater than or equal to 10%
Reply: TRUE

Query: # check: growth of BrCCCOc1ccc(Oc2ccc(OCCCBr)cc2)cc1 is greater than or equal to 10%
Reply: TRUE

* * *

Test system: HT29 colon
Assay: NCI-60 one-dose screen, 48 h
Settings: 10 µM unless noted
The panel holds about 83,000 compounds, 20% with a hit somewhere; the sample as a whole holds those more often. Activity calls are given as the source filed them. How the source made its calls: active means growth percent below 10; inactive means the rest.
Select the correct class. Options are 1 for active, -1 for inactive and nothing else.

Example results:
smilesRepresentation | assaySystem | classification
CNCCCNCCCCNCCCN1C(=O)c2ccc3c4c(ccc(c24)C1=O)C(=O)N(CCCNCc1ccccc1OC)C3=O | HT29 colon | 1
CC(=O)c1cc(Nc2cc(C)nc(N)n2)cc(C(C)=O)c1 | HT29 colon | -1
O=C1/C(=N\c2cc(=O)[nH]n2S(=O)(=O)c2ccccc2)Nc2ccccc21 | HT29 colon | -1

Continue with the compound presented below.
Query: Please state the recorded outcome for this compound: CCCCCCNC(=O)Oc1ccc(/C(=C(/C)Cc2ccc(OC)cc2)c2ccc(OCCN3CCCCC3)cc2)cc1
Reply: -1

* * *

Recorded growth values for a group of molecules are listed next.
System: NCI/ADR-RES ovarian
Assay: NCI-60 one-dose screen, 48 h (100 = growth as untreated, 0 = no growth, -100 = all killed)
Settings: 10 µM unless noted
About 83,000 compounds went through this panel and 20% of them were active in at least one assay; those are over-represented in the sample as a whole. Calls of active or inactive are those of the source. The calls were made as follows: active = growth percent below 10; inactive = the rest.

molecule | growth
CC/C(=N\Nc1nc2ccccc2n1C)c1ccccn1 | -5.99% (active)
CCCCCCCCCCC1OC(C)CC(C)O1 (stereo not drawn) | 105% (inactive)
CC(C)(C)C(=O)OCOP(=O)(OCOC(=O)C(C)(C)C)C1CC(O)N(O)C1=O (stereo not drawn) | 44.6% (inactive)

Query: Specify reported growth for the molecule shown: COC1=CC(c2ccc[nH]2)=N/C1=C\c1[nH]c(C)c(C(=O)CCCCC(=O)NC(C)(C)C)c1C
Reply: 30.1% (inactive)

Query: Specify reported growth for the molecule shown: NNC(=O)CNc1ccc2ccccc2c1
Reply: 113% (inactive)

Query: Specify reported growth for the molecule shown: O=C(CCCC(=O)Nc1ccc(Cn2nnc3cc(Cl)c(Cl)cc32)cc1)Nc1ccc(CN2N=NC3C=C(Cl)C(Cl)=CC32)cc1 (stereo not drawn)
Reply: 83.1% (inactive)

Query: Specify reported growth for the molecule shown: COc1ccc(C(=O)c2no[n+]([O-])c2C(=O)c2ccc(OC)cc2)cc1
Reply: 96.2% (inactive)
